All figures here come from patent US4294841A.

test system: uptake of serotonin (5-hydroxytryptamine, 5HT); assay: inhibition test of the uptake of serotonin by synaptosomes of the rat brain (medulla + pons); type: biochemical; conditions: read-out: I50 5HT (medulla + pons)
pIC50: −log10 of the molar value.

[
  {
    "compound": "COc1ccc(CCCC2CCNCC2)cc1",
    "assayedTarget": "uptake of serotonin (5-hydroxytryptamine, 5HT)",
    "pIC50": 7.70
  },
  {
    "compound": "Fc1ccc(CCCC2CCNCC2)cc1 [Example 7, 4-[3-(4-Fluorophenyl)1-propyl]piperidine]",
    "assayedTarget": "uptake of serotonin (5-hydroxytryptamine, 5HT)",
    "pIC50": 8.00
  },
  {
    "compound": "Clc1ccc(CCCC2CCNCC2)cc1Cl",
    "assayedTarget": "uptake of serotonin (5-hydroxytryptamine, 5HT)",
    "pIC50": 6.74
  },
  {
    "compound": "c1ccc(CCCC2CCNCC2)cc1 [Example 16, 4-[3-(phenyl)propyl]piperidine]",
    "assayedTarget": "uptake of serotonin (5-hydroxytryptamine, 5HT)",
    "pIC50": 8.70
  },
  {
    "compound": "CN(C)CCCN1c2ccccc2CCc2ccccc21 [Imipramine, reference compound]",
    "assayedTarget": "uptake of serotonin (5-hydroxytryptamine, 5HT)",
    "pIC50": 6.92
  },
  {
    "compound": "Clc1ccc(CCCC2CCNCC2)cc1 [Example 8, 4-[3-(4-Chlorophenyl)1-propyl]piperidine]",
    "assayedTarget": "uptake of serotonin (5-hydroxytryptamine, 5HT)",
    "pIC50": 7.05
  },
  {
    "compound": "Cc1ccc(CCCC2CCNCC2)cc1 [Example 10, 4-[3-(4-Methylphenyl)1-propyl]piperidine]",
    "assayedTarget": "uptake of serotonin (5-hydroxytryptamine, 5HT)",
    "pIC50": 6.80
  }
]

====

Measured pKi accompanies every entry in the list below.
biological target: receptors for benzodiazepines in the brain membranes (3H-diazepam binding site); assay: displacement of 3H-diazepam from its binding sites (method of H. Mohler et al.); design: species or system rat; conditions: calculated from I50, read-out: Ki
pKi: −log10 of the molar value.

[
  {
    "compound": "COc1ccc(C(O)CCC2CCNCC2)cc1 (centres unmarked)",
    "assayedTarget": "receptors for benzodiazepines in the brain membranes (3H-diazepam binding site)",
    "pKi": 4.49
  },
  {
    "compound": "Cc1ccc(CCCC2CCNCC2)cc1 [Example 10, 4-[3-(4-Methylphenyl)1-propyl]piperidine]",
    "assayedTarget": "receptors for benzodiazepines in the brain membranes (3H-diazepam binding site)",
    "pKi": 4.38
  },
  {
    "compound": "COc1ccc(CCCC2CCNCC2)cc1",
    "assayedTarget": "receptors for benzodiazepines in the brain membranes (3H-diazepam binding site)",
    "pKi": 4.71
  },
  {
    "compound": "Nc1ccc(CCCC2CCNCC2)cc1 [Example 17, 4-[3-(4-Aminophenyl)propyl]piperidine]",
    "assayedTarget": "receptors for benzodiazepines in the brain membranes (3H-diazepam binding site)",
    "pKi": 4.44
  },
  {
    "compound": "COc1ccc(C(=O)CCC2CCNCC2)cc1",
    "assayedTarget": "receptors for benzodiazepines in the brain membranes (3H-diazepam binding site)",
    "pKi": 5.19
  },
  {
    "compound": "Clc1ccc(CCCC2CCNCC2)cc1 [Example 8, 4-[3-(4-Chlorophenyl)1-propyl]piperidine]",
    "assayedTarget": "receptors for benzodiazepines in the brain membranes (3H-diazepam binding site)",
    "pKi": 4.44
  },
  {
    "compound": "Fc1ccc(CCCC2CCNCC2)cc1 [Example 7, 4-[3-(4-Fluorophenyl)1-propyl]piperidine]",
    "assayedTarget": "receptors for benzodiazepines in the brain membranes (3H-diazepam binding site)",
    "pKi": 4.35
  },
  {
    "compound": "Oc1ccccc1CCCC1CCNCC1 [Example 20, 2-[3-(4-Piperidyl)propyl]phenol]",
    "assayedTarget": "receptors for benzodiazepines in the brain membranes (3H-diazepam binding site)",
    "pKi": 4.54
  }
]
